human PDE10A2 (Homo sapiens (Human)) Ki, compiled from various sources.
measured-metric: Ki (nM)

Solved cases below.
| compound | reported-measurement |
| --- | --- |
| Cc1ccc([C@H]2C[C@@H]2COc2nc(C)ncc2[C@H]2CC[C@@](C)(O)CC2)nc1 | 12.4 |
| Cc1nc([C@@H]2C[C@H]2c2nc3ccccc3n2CCN(C)C)cc(-n2nc(C)nc2C)n1 (stereo in doubt) | 14.2 |
| Cc1nc(-c2cccnn2)cc(N2CC(c3nc4ccccc4n3C)C2)n1 | 11 |
| Cc1ccc([C@H]2C[C@@H]2COc2nc(C)ncc2-c2cccn3ccnc23)nc1 | 37.3 |
| Cc1ccc([C@H]2C[C@@H]2COc2nc(C)ncc2[C@H]2CC[C@](C)(O)CC2)nc1 | 6.86 |
| COc1ccc(Cc2nc(C)nn2-c2cc(C3CC3c3nnc(C)o3)nc(C)n2)cc1OC (stereo not shown) | 88 |
| Cc1ncc(C2CCC3(CC2)OCCO3)c(OC[C@H]2C[C@H]2c2ccccn2)n1 | 27.6 |
| Cc1nc(N2CC(c3nc4ccccc4n3C)C2)cc(-n2nc(C)nc2C2CC(=O)N(C)C2)n1 (stereo not shown) | 3.9 |
| Cc1nc(N2CC(c3nc4c(F)cccc4n3C)C2)cc(-n2nc(C)nc2C)n1 | 17 |
| COc1ccc(Cc2nc(C)nn2-c2cc(C3CC3c3nnc(C)s3)nc(C)n2)cc1OC (stereo not shown) | 9.8 |

1: COc1ccc(-n2c(CCN3C(=O)c4cccc(OC)c4C3=O)nc3ccccc3c2=O)cc1
2: Cc1nc(C)n(-c2cc([C@@H]3C[C@H]3c3nc4ccccc4n3C)nc(N3CC[C@@H](F)C3)n2)n1
3: COc1ccc(Cc2nc(C)nn2-c2cc(CCc3ccc4ncccc4n3)nc(C)n2)cc1OC
4: Cc1nc(-c2ccccc2F)cc(N2CC(c3nc4ccccc4n3C)C2)n1
Query: Please order the records by their reported Ki, lowest number first. To answer, arrange all of the labels according to the requested order.
Response: 3, 2, 1, 4

I: COC(=O)c1ccc(-c2cnc(C)nc2OC[C@H]2C[C@@H]2c2ccc(C)cn2)cn1
II: Cc1ncc(-c2ccc(C(C)(C)O)nc2)c(OC[C@H]2C[C@@H]2c2ccccn2)n1
III: COc1nc(C)ccc1-c1cc(N2CC(c3nc4ccccc4n3C)C2)nc(C)n1
Query: Output the entries ranked by Ki from maximum down to minimum. To answer, arrange all of the labels according to the requested order.
Response: III, I, II

a: COC[C@H](C)Oc1nc(-c2ccc(Cl)nc2)nc2c1CN(C(=O)Nc1ccc(C)nc1)CC2
b: CSc1nc([C@@H]2C[C@H]2c2nc3ccccc3n2C)cc(-n2nc(C)nc2C)n1
c: Cc1ccc([C@H]2C[C@@H]2COc2nc(C)ncc2-c2cnnc(C)c2)nc1
Query: Please order the records by their reported Ki, lowest number first. To answer, arrange all of the labels according to the requested order.
Response: b, a, c

###

human PDE10A2 (Homo sapiens (Human)) Ki, compiled from various sources.
measured-metric: Ki (nM)

| smiles-input | Ki [nM] |
| --- | --- |
| CCn1cc(-c2cnc(C)nc2OC[C@H]2C[C@@H]2c2ccc(C)cn2)cc(C)c1=O | 0.533 |

1: COC(=O)NCCNc1nc(-c2cccnc2)nc2c1CN(C(=O)Nc1ccccc1)CC2
2: COc1ccc(-n2c(CCN3C(=O)c4ccccc4C3=O)nc3ncccc3c2=O)cc1
3: C=CCn1ccc(-c2cnc(C)nc2OC[C@H]2C[C@@H]2c2ccc(OC)cn2)cc1=O
4: CCn1c(C)c(-c2cnc(C)nc2OC[C@H]2C[C@@H]2c2ccc3ccccc3n2)ccc1=O
Query: Output the entries ranked by Ki from maximum down to minimum. To answer, arrange all of the labels according to the requested order.
Response: 1, 2, 3, 4
(1: 95.3 nM, 2: 39 nM, 3: 0.458 nM, 4: 0.045 nM)

###

human PDE10A2 (Homo sapiens (Human)) Ki, compiled from various sources.
measured-metric: Ki (nM)

I: CCc1nc(C)nn1-c1cc(N2CC(c3nc4ccccc4n3C)C2)nc(C)n1
II: COc1ccc([C@H]2C[C@@H]2COc2nc(C)ncc2-c2ccc(C(=O)O)nn2)nc1
Query: Which value of Ki is greater, the one for I or the one for II ? Give the chosen item's label as your response.
Response: II

1: Cc1nnc(CNc2cc(OC[C@H]3C[C@@H]3c3ccccn3)nc(CF)n2)s1
2: Cc1ncc(-c2ccn(C)c(=O)c2)c(OC[C@H]2C[C@@H]2c2ccc3ccccc3n2)n1
Query: Which value of Ki is greater, the one for 1 or the one for 2 ? Give the chosen item's label as your response.
Response: 1
(1: 1.1 nM, 2: 0.03 nM)

P: Cc1nnc(CNc2nc(N)nc(OC[C@H]3C[C@@H]3c3ccc(Cl)cn3)c2F)s1
Q: COc1ccc([C@H]2C[C@@H]2COc2nc(C)ncc2-c2ccc(-c3ncon3)cc2)nc1
R: Cc1ccc([C@H]2C[C@@H]2COc2nc(C)ncc2-c2cccoc2=O)nc1
Query: Please order the records by their reported Ki, lowest number first. To answer, arrange all of the labels according to the requested order.
Response: Q, P, R
(Q: 1.16 nM, P: 3.6 nM, R: 22.4 nM)

###

human PDE10A2 (Homo sapiens (Human), UniProt Q9Y233) pKi, compiled from various sources.
pKi: −log10 of the molar value.
measured-metric: pKi

| molecule | assay-target | reported-measurement |
| --- | --- | --- |
| COc1ccc([C@H]2C[C@@H]2COc2nc(C)ncc2-c2ccc(-c3nnnn3C)cc2)nc1 | human PDE10A2 (Homo sapiens (Human), UniProt Q9Y233) | 8.97 |
| COc1nc(N2CC(c3nc4ccccc4n3C)C2)cc(-n2cc(C)cn2)n1 | human PDE10A2 (Homo sapiens (Human), UniProt Q9Y233) | 9.09 |

1: Cc1ccc([C@H]2C[C@@H]2COc2nc(C)ncc2-c2ccn(C3CC3)c(=O)c2)nc1
2: Cc1nc(C)n(-c2cc([C@H]3C[C@@H]3c3nc4ccccc4n3C)nc(OCC(F)(F)F)n2)n1 (relative stereo)
Query: Which value of pKi is greater, the one for 1 or the one for 2 ? Give the chosen item's label as your response.
Response: 1
(1: 9.03, 2: 8.82)

###

UniProtKB Q9Y233 Ki, compiled from various sources.

Solved cases below.
| compound | Ki |
| --- | --- |
| Cc1nc(-n2nc(C)nc2C)cc(C2(O)CC(c3nc4ccccc4n3C)C2)n1 (stereo not drawn) | > 75 nM |
| Nc1nccn2c(C3CCCCC3)nnc12 | > 5100 nM |

Then there is this compound:
Query: Field: Ki (UniProtKB Q9Y233). Entry: Cc1nc([C@H]2C[C@@H]2c2nc3ccccc3n2CCF)cc(-n2nc(C)nc2C)n1
Response: > 75 nM

###

pKi: −log10 of the molar value.
human PDE10A2 (Homo sapiens (Human)) pKi, compiled from various sources.
measured-metric: pKi

Solved cases below.
| molecule | pKi |
| --- | --- |
| Cc1nc(C2CC2c2nc3cc(F)c(F)cc3[nH]2)cc(-n2nc(C)nc2C)n1 (stereo not shown) | 7.60 |
| COc1ccc([C@H]2C[C@@H]2COc2nc(C)ncc2-c2ocnc2C)nc1 | 9.04 |
| Cc1ncc(-c2cc(=O)n(C)cn2)c(OC[C@H]2C[C@@H]2c2ccc3ccccc3n2)n1 | 9.64 |
| CCc1ccc([C@H]2C[C@@H]2COc2nc(C)ncc2-c2cn(C)nc2C(C)O)nc1 (stereo partly shown) | 9.62 |
| Cc1ncc(-c2cccnc2)c(OC[C@H]2C[C@@H]2c2ccc3ccccc3n2)n1 | 11.00 |
| Cc1nc(C)n(-c2cc([C@@H]3C[C@H]3c3nc4ccccc4n3C)nc(C#N)n2)n1 | 10.07 |
| CCn1nnc(-c2ccc(-c3cnc(C)nc3OC[C@H]3C[C@@H]3c3ccc(OC)cn3)cn2)n1 | 9.11 |
| COc1ccc(-n2c(CCN3C(=O)c4cccc(OCC(F)(F)F)c4C3=O)nc3nc(C)ccc3c2=O)cc1 | 8.68 |

P: Cc1nc(-c2ccncc2)cc(N2CC(c3nc4ccccc4n3C)C2)n1
Q: CCc1nc(CC)n(-c2cc(N3CC(c4nc5ccccc5n4C)C3)nc(C)n2)n1
Query: Which value of pKi is greater, the one for P or the one for Q ? Give the chosen item's label as your response.
Response: Q

A: Cc1cc(-n2nc(C)nc2C)cc([C@@H]2C[C@H]2c2nc3ccccc3n2C)n1 (relative stereo)
B: Cc1ccc([C@H]2C[C@@H]2COc2nc(C)ncc2-c2ccc(=O)n(C)c2)nc1
Query: Select one. Lower pKi: A or B Give the chosen item's label as your response.
Response: A
(A: 7.85, B: 8.69)
